target: PIM1 (Homo sapiens (Human))
Sequence (P11309 whole entry): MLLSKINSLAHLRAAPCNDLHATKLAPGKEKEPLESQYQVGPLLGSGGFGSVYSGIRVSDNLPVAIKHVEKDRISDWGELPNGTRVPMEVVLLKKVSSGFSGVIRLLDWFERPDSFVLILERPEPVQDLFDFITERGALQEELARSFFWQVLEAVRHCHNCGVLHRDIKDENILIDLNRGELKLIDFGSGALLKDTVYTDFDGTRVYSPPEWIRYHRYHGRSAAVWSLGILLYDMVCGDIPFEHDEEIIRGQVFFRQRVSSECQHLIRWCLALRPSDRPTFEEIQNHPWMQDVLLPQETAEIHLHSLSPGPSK
Mark each entry met if its Ki sits below 0.1 nM, and not met for all others.

Known results for compounds:
Cn1ncc(NC(=O)c2csc(-c3cn4ccncc4n3)n2)c1[C@@H]1CC[C@@H](N)[C@H](F)CO1; not met
N[C@H]1CC[C@H](c2c(NC(=O)c3csc(-c4c(F)cccc4F)n3)cnn2C2CC2)OC[C@@H]1F; not met
Cn1ncc(NC(=O)c2csc(-c3cn4ccnc4cn3)n2)c1[C@@H]1CC[C@@H](N)[C@H](F)CO1; met
Cc1cccnc1-c1nc(C(=O)Nc2cn[nH]c2[C@@H]2CC[C@@H](N)[C@H](F)CO2)cs1; not met
N[C@@H]1CC[C@@H](c2[nH]ncc2NC(=O)c2csc(-c3c(F)cccc3F)n2)OC[C@H]1F; not met

Item "COc1cc(F)c(-c2nc(C(=O)Nc3cnn(C)c3[C@@H]3CC[C@@H](N)[C@H](F)CO3)cs2)cc1Cl" : Ki beneath 0.1 nM, strictly?
met

Item "Cn1ncc(NC(=O)c2csc(-c3c(O)cccc3F)n2)c1[C@@H]1CC[C@@H](N)[C@H](F)CO1" : Ki beneath 0.1 nM, strictly?
not met

Item "CO[C@H]1[C@H](N)CC[C@@H](c2c(NC(=O)c3csc(-c4c(F)cccc4F)n3)cnn2C)O[C@H]1C" : Ki beneath 0.1 nM, strictly?
met
